Each entry below lists one item and its recorded growth value.
Test system: EKVX NSCLC
Experiment: NCI-60 one-dose screen, 48 h (100 = growth as untreated, 0 = no growth, -100 = all killed)
Settings: 10 µM unless noted
This is part of a sample that, as a whole, favours compounds with a hit. Of some 83,000 tested, about 20% had one in any assay. Activity calls are given as the source filed them. Rule for the calls: active = growth percent below 10; inactive = the rest.

Example molecules with recorded growth:
molecule | growth
COc1cc(OC)c(C(=O)C(CN(C)C)CN(C)C)cc1OC | 20.3% (inactive)
C=C(C)[C@@H]1CC[C@]2(COC(C)=O)CC[C@]3(C)[C@H](CC[C@@H]4[C@@]5(C)CCCN(C(C)=O)C(C)(C)[C@@H]5CC[C@]43C)[C@@H]12 | 90% (inactive)
N#CSc1c[nH]c2cccc(/C=C/C(=O)/C=C(O)/C=C/c3cccc4[nH]cc(SC#N)c34)c12 | -23.9% (active)

# query: growth of entry "CC1(C)CC[C@]2(CO)CC[C@]3(C)[C@H](CC[C@@H]4[C@@]5(C)CCCNC(C)(C)[C@@H]5CC[C@]43C)[C@H]2[C@H]1O"
95.2% (inactive)

# query: growth of entry "COc1cc(C2C(C(=O)OCc3ccccc3)=C(C)NC(C)=C2C(=O)OCc2ccccc2)cc(OC)c1OC"
31.5% (inactive)

# query: growth of entry "Cc1cc2c(cc1C)N(C(=O)CCl)CC(=O)N2"
119% (inactive)

# query: growth of entry "CC(=O)Oc1ccc(OC(C)=O)c2ccccc12"
92.3% (inactive)

# query: growth of entry "NC(=O)c1cccc([C@@H]2O[C@H](CO)[C@@H](O)[C@H]2O)c1"
99% (inactive)

# query: growth of entry "O=C(CCCCCCN1CC(=O)N2[C@H](c3ccc(Br)cc3)c3[nH]c4ccccc4c3C[C@@H]2C1=O)NO"
56.7% (inactive)

# query: growth of entry "O=C(NNc1cnccn1)c1nc2cc(F)ccc2n2cccc12"
17.9% (inactive)

# query: growth of entry "CNC(=O)c1ccccc1Nc1nc(Nc2cc(OC)c(OC)c(OC)c2)ncc1Br"
-10.4% (active)

# query: growth of entry "CCCCC#Cc1c(I)n(C)c(=O)[nH]c1=O"
52.9% (inactive)

# query: growth of entry "COCCn1cc(-c2csc(-c3c[nH]c4ccc(Br)cc34)n2)c2cccnc21"
36.9% (inactive)

# query: growth of entry OCCNCCNC(Cc1ccc(Cl)cc1)c1ccccc1 (stereo not given)
88.5% (inactive)

# query: growth of entry "COc1cccc(/C=N/NC(=O)c2ccccc2N2CCCC2)c1O"
41.7% (inactive)

# query: growth of entry "Cc1ccc2nc(NC(=O)CSc3nc(-c4ccccc4)c(C#N)c4nnnn34)sc2c1"
106% (inactive)

# query: growth of entry "Cc1ccc(CNc2ccc3nc(CCC(C)C)[nH]c3c2)cc1"
96% (inactive)

# query: growth of entry "O=C(CSc1nnc(-c2cc(-c3ccccc3)nc3ccccc23)n1-c1ccccc1)Nc1ccc(C(=O)/C=C/c2ccc(Cl)cc2)cc1"
88.5% (inactive)

# query: growth of entry CCCn1cnc2c(c1=N)C(c1ccc(F)cc1)c1sc3c(F)cccc3c1O2 (stereo not given)
76.5% (inactive)

# query: growth of entry "S=C(c1ccc2c(c1)OCO2)N1CCN(c2cccc(Cl)c2)CC1"
50.9% (inactive)

Data credit: PubChem BioAssay (NCI)
